# key: entry, value: Count
- Tested on: Laminin 421/521
- assayProtocol: Phage display library screening (Example 2), NEB laminin-binding peptides
- Set-up: species or system human
- conditionLabel: Laminin 421/521, not 211 and 411; combined unique sequence count, Python/R script analysis

- residueCodes: "CKSPIKGTC (Laminin 421/521-binding peptide)"
  Count: 27
- residueCodes: "CTPRSATLC (Laminin 421/521-binding peptide)"
  Count: 37
- residueCodes: "CKSERGPEC (Laminin 421/521-binding peptide)"
  Count: 30
- residueCodes: "GWIQDTFVLGRS (Laminin 421/521-binding peptide)"
  Count: 40
- residueCodes: "SLAVANTRFMIR (Laminin 421/521-binding peptide)"
  Count: 49
- residueCodes: "CTGETLLTC (Laminin 421/521-binding peptide)"
  Count: 28
- residueCodes: "ALGGEPRKAYQR (Laminin 421/521-binding peptide)"
  Count: 45
- residueCodes: "SLPYAASLNSVE (Laminin 421/521-binding peptide)"
  Count: 28
- residueCodes: "WNANYGTMTRHA (Laminin 421/521-binding peptide)"
  Count: 92
- residueCodes: "ETYKVTRVISPW (Laminin 421/521-binding peptide)"
  Count: 50
- residueCodes: "DGQVSDHSYVQW (Laminin 421/521-binding peptide)"
  Count: 101

* * *

- Tested on: Laminin 421/521
- assayProtocol: Phage display library screening (Example 2), NEB laminin-binding peptides
- Parameters: species or system human
- conditionLabel: Laminin 421/521, not 211 and 411; combined unique sequence count, Python/R script analysis
This section presents substances with their documented Count values.
propertyMeasured: Count

- substance: "QTFGYSMFNVRT (Laminin 421/521-binding peptide)"
  recordedNumber: 30
- substance: "GDVITAYINPWP (Laminin 421/521-binding peptide)"
  recordedNumber: 39
- substance: "EVERILTPHVNN (Laminin 421/521-binding peptide)"
  recordedNumber: 29
- substance: "FNSDSRSTHQED (Laminin 421/521-binding peptide)"
  recordedNumber: 29
- substance: "ANRYLAS (Laminin 421/521-binding peptide)"
  recordedNumber: 40
- substance: "GPKNHHQ (Laminin 421/521-binding peptide)"
  recordedNumber: 51
- substance: "HQSVTGVRSHFH (Laminin 421/521-binding peptide)"
  recordedNumber: 27
- substance: "QGWEFQVPARHS (Laminin 421/521-binding peptide)"
  recordedNumber: 30
- substance: "SLLSVVNTSSKS (Laminin 421/521-binding peptide)"
  recordedNumber: 31
- substance: "TTNGVPGHDRSP (Laminin 421/521-binding peptide)"
  recordedNumber: 46
- substance: "CGITQTTTC (Laminin 421/521-binding peptide)"
  recordedNumber: 55
- substance: "RLVTASMVSPSF (Laminin 421/521-binding peptide)"
  recordedNumber: 95
- substance: "AGAYTSRHAFDE (Laminin 421/521-binding peptide)"
  recordedNumber: 39
- substance: "GINLRALDLHAN (Laminin 421/521-binding peptide)"
  recordedNumber: 27
- substance: "TFAAAQAELIMV (Laminin 421/521-binding peptide)"
  recordedNumber: 38
- substance: "QLQHVHL (Laminin 421/521-binding peptide)"
  recordedNumber: 28
- substance: "KASIAYD (Laminin 421/521-binding peptide)"
  recordedNumber: 30
- substance: "HASNQRV (Laminin 421/521-binding peptide)"
  recordedNumber: 93
- substance: "CLKDTHLNC (Laminin 421/521-binding peptide)"
  recordedNumber: 40
- substance: "TTLWLDRDEALK (Laminin 421/521-binding peptide)"
  recordedNumber: 27
- substance: "QTRWDDGSYQIS (Laminin 421/521-binding peptide)"
  recordedNumber: 49

* * *

- System: Human MPZ
- Sequence (P25189 30-153 limits assumed): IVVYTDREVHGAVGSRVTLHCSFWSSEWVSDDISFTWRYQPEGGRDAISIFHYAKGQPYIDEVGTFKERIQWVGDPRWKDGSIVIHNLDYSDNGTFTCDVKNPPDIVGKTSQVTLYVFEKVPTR
- assayProtocol: Phage display library screening (Example 2, Python script analysis), binding to Human MPZ
- conditionLabel: combined unique sequence count, Python/R script analysis
propertyMeasured: Count

- substance: "VVPLKWI (Human MPZ-binding peptide)"
  subjectOfTest: "Human MPZ"
  recordedNumber: 40
- substance: "MIHTRQT (Human MPZ-binding peptide)"
  subjectOfTest: "Human MPZ"
  recordedNumber: 41
- substance: "TLLHYSA (Human MPZ-binding peptide)"
  subjectOfTest: "Human MPZ"
  recordedNumber: 40
- substance: "SNALSYF (Human MPZ-binding peptide)"
  subjectOfTest: "Human MPZ"
  recordedNumber: 41
- substance: "HHPLFID (Human MPZ-binding peptide)"
  subjectOfTest: "Human MPZ"
  recordedNumber: 39
- substance: "FPSYTIS (Human MPZ-binding peptide)"
  subjectOfTest: "Human MPZ"
  recordedNumber: 40

* * *

- subjectOfTest: Human MPZ (human) (UniProt P25189)
- Sequence (P25189 30-153 limits assumed): as above
- assayProtocol: phage display, NGS count
Record condition met whenever Count is at 40 or higher; record condition not met when lower.

- substance: "YAPWRVF (peptide)"
  classAssignment: "condition not met"
- substance: "SAHAKHH (peptide)"
  classAssignment: "condition met"
- substance: "GSWSSGF (peptide)"
  classAssignment: "condition met"
- substance: "YPQARTS (peptide)"
  classAssignment: "condition met"
- substance: "LSPPRIM (peptide)"
  classAssignment: "condition met"
- substance: "TMASPAK (peptide)"
  classAssignment: "condition met"
- substance: "TESLFPH (peptide)"
  classAssignment: "condition met"
- substance: "THSTDLS (peptide)"
  classAssignment: "condition not met"
- substance: "KLPTLSV (peptide)"
  classAssignment: "condition met"
- substance: "ISSVTVV (peptide)"
  classAssignment: "condition not met"
- substance: "SVAYVPV (peptide)"
  classAssignment: "condition met"
- substance: "LWAKRDA (peptide)"
  classAssignment: "condition not met"
- substance: "YMKHSPG (peptide)"
  classAssignment: "condition met"
- substance: "SHSPGNK (peptide)"
  classAssignment: "condition met"

* * *

- subjectOfTest: Human Myelin Basic Protein (Homo sapiens, UniProt P02686)
- Sequence (P02686 134-304): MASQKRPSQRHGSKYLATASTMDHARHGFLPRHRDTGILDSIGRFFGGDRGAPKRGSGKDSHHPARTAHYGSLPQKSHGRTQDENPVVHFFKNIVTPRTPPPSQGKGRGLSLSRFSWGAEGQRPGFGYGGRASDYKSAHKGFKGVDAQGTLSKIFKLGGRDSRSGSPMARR
- assayProtocol: Phage display library screening (Example 2, Python script analysis), binding to Human Myelin Basic Protein
- Set-up: Enzo 200-606-M001 from human; purchased Enzo 200-606-M001; host or cells: human brain (tissue-derived)
- conditionLabel: R3 Myelin Basic Protein; combined unique sequence count, Python/R script analysis
- Method: Phage display library screens were used to identify peptides that bind to target proteins (including specific laminin trimers) that are expressed in human nerves, as described in Table 3. These screens were also carried out to identify peptides that could bind selectively to nerves versus muscle. Such peptides could therefore be useful for systemic in-vivo labeling of nerves during fluorescence assisted surgery. […]
Reported Count values for the following substances.

- substance: "ALYNQMT (R3 Myelin Basic Protein-binding peptide)"
  Count: 6
- substance: "LVPPVNH (R3 Myelin Basic Protein-binding peptide)"
  Count: 6
- substance: "QTSIMSG (R3 Myelin Basic Protein-binding peptide)"
  Count: 6
- substance: "SKPHASH (R3 Myelin Basic Protein-binding peptide)"
  Count: 6
- substance: "NTSLSFK (R3 Myelin Basic Protein-binding peptide)"
  Count: 8

* * *

Reported Count values follow for various substances
- Test system: Human MPZ
- assayProtocol: Phage display library screening (Example 2, Python script analysis), binding to Human MPZ
- conditionLabel: combined unique sequence count, Python/R script analysis

- substance: "FALPAGL (Human MPZ-binding peptide)"
  subjectOfTest: "Human MPZ"
  Count: 41
- substance: "CSNALNKAC (Human MPZ-binding peptide)"
  subjectOfTest: "Human MPZ"
  Count: 39
- substance: "FSTTGRG (Human MPZ-binding peptide)"
  subjectOfTest: "Human MPZ"
  Count: 39
- substance: "WPRPIQI (Human MPZ-binding peptide)"
  subjectOfTest: "Human MPZ"
  Count: 41
- substance: "FRVTQTA (Human MPZ-binding peptide)"
  subjectOfTest: "Human MPZ"
  Count: 41
